# Assay remarks: Stability of the analytes in human plasma at QC levels
# Type: in vitro ADME
# Run conditions: middle QC; autosampler r.t., 48 h; n = 5
Measured metric: The autosampler Dev. (48h, %)

- Compound: "CCC(=O)OCC(=O)[C@@]1(OC(=O)CC)[C@@H](C)C[C@H]2[C@@H]3CCC4=CC(=O)C=C[C@]4(C)[C@@]3(F)[C@@H](O)C[C@@]21C [BDP, betamethasone dipropionate]"
  Test result: "−5.68"
- Compound: "C[C@H]1C[C@H]2[C@@H]3CCC4=CC(=O)C=C[C@]4(C)[C@@]3(F)[C@@H](O)C[C@]2(C)[C@@]1(O)C(=O)COP(=O)([O-])[O-].[Na+].[Na+] [BSP, betamethasone sodium phosphate]"
  Test result: 9.88

(P) C[C@H]1C[C@H]2[C@@H]3CCC4=CC(=O)C=C[C@]4(C)[C@@]3(F)[C@@H](O)C[C@]2(C)[C@@]1(O)C(=O)CO [BOH, betamethasone]
(Q) CCC(=O)O[C@]1(C(=O)CO)[C@@H](C)C[C@H]2[C@@H]3CCC4=CC(=O)C=C[C@]4(C)[C@@]3(F)[C@@H](O)C[C@@]21C [B17P, betamethasone 17-monopropionate]
Hello, I am sorting some records. Could you say if P or Q has the smaller The autosampler Dev. (48h, %) value? Lab note: record the label of whichever item you select.
Q
